Give measured GI50 for each item. Keep answers brief.
# Test system: SK-MEL-28
# Assay: SRB colorimetric assay of cell growth and viability, SK-MEL-28
# Assay type: cell-based, human
# Stated conditions: 48 hours exposure
Where a SMILES comes first, the peptide text is derived from it. Bridges are numbered along the chain shown (N, C = ends). [ ]: non-standard residue; d: D form. The star is where a group is joined. d(aIle) = CC[C@H](C)[C@@H](N)C(=O)O; d(aThr) = C[C@@H](O)[C@@H](N)C(=O)O; Hexanoyl(5-Me) = CC(C)CCCC(=O)*; Orn = NCCC[C@H](N)C(=O)O; Dhb = C/C=C(\N)C(=O)O
Reply with just the number (in µM).

Query: Look up GI50 for this compound: C/C=C1\NC(=O)[C@H](Cc2ccccc2)NC(=O)[C@@H](C(C)C)NC(=O)[C@@H]([C@@H](C)CC)NC(=O)[C@H](NC(=O)[C@H](NC(=O)[C@H](CCCN)NC(=O)[C@H]2CCCN2C(=O)[C@H](NC(=O)[C@H](CCC(=O)O)NC(=O)[C@@H](NC(=O)[C@H](NC(=O)CCCC(C)C)C(C)C)[C@@H](C)O)C(C)C)[C@@H](C)CC)[C@@H](C)OC(=O)[C@H](C(C)C)NC1=O [Compound 51, [Glu^11]-KF] ({Hexanoyl(5-Me)}-[dV]TE[dV][dP][Orn][d(aIle)][d(aThr)][d(aIle)][dV]F[Dhb]V; ester 8-C)
Result: 6.63

Query: Look up GI50 for this compound: C/C=C1\NC(=O)[C@H](Cc2ccccc2)NC(=O)[C@@H](C(C)C)NC(=O)[C@@H]([C@@H](C)CC)NC(=O)[C@H](NC(=O)[C@H](NC(=O)[C@H](CCCN)NC(=O)[C@H]2CCCN2C(=O)[C@H](NC(=O)[C@@H](NC(=O)[C@@H](NC(=O)[C@H](NC(=O)CCCCCCCCCC)C(C)C)[C@@H](C)O)C(C)C)C(C)C)[C@@H](C)CC)[C@@H](C)OC(=O)[C@H](C(C)C)NC1=O [Compound 15, [Und^14]-KF]
Result: 0.169

---

# Test system: DU-145
# Assay: SRB colorimetric assay of cell growth and viability, DU-145
# Assay type: cell-based, human
# Stated conditions: 48 hours exposure, SRB
Where a SMILES comes first, the peptide text is derived from it. Bridges are numbered along the chain shown (N, C = ends). [ ]: non-standard residue; d: D form. The star is where a group is joined. d(aIle) = CC[C@H](C)[C@@H](N)C(=O)O; d(aThr) = C[C@@H](O)[C@@H](N)C(=O)O; Hexanoyl(5-Me) = CC(C)CCCC(=O)*; Orn = NCCC[C@H](N)C(=O)O; Dha = C=C(N)C(=O)O
Give measured TGI DU-145 for each item. Keep answers brief.
Reply with just the number (in Molar).

Query: Look up TGI DU-145 for this compound: C=C1NC(=O)[C@H](Cc2ccccc2)NC(=O)[C@@H](C(C)C)NC(=O)[C@@H]([C@@H](C)CC)NC(=O)[C@H](NC(=O)[C@H](NC(=O)[C@H](CCCN)NC(=O)[C@H]2CCCN2C(=O)[C@H](NC(=O)[C@@H](NC(=O)[C@@H](NC(=O)[C@H](NC(=O)CCCC(C)C)C(C)C)[C@@H](C)O)C(C)C)C(C)C)[C@@H](C)CC)[C@@H](C)OC(=O)[C@H](C(C)C)NC1=O [Compound 67, [Dha^2]-KF] ({Hexanoyl(5-Me)}-[dV]TV[dV][dP][Orn][d(aIle)][d(aThr)][d(aIle)][dV]F[Dha]V; ester 8-C)
Result: 1.77E−06

Query: Look up TGI DU-145 for this compound: [2H]C([2H])([2H])C([2H])(C([2H])([2H])[2H])[C@]([2H])(NC(=O)[C@@H](NC(=O)[C@H](NC(=O)CCCC(C)C)C(C)C)[C@@H](C)O)C(=O)N[C@@H](C(=O)N1CCC[C@@H]1C(=O)N[C@@H](CCCN)C(=O)N[C@@H](C(=O)N[C@H]1C(=O)N[C@H]([C@@H](C)CC)C(=O)N[C@H](C(C)C)C(=O)N[C@@H](Cc2ccccc2)C(=O)N/C(=C\C)C(=O)N[C@@H](C(C)C)C(=O)O[C@@H]1C)[C@@H](C)CC)C(C)C [Compound 100, [L-Val-d8^11]-KF]
Result: 9.69E−07

---

# System: HeLa
# Assay: SRB colorimetric assay of cell growth and viability, HeLa
# Format: cell-based, human
# Stated conditions: 48 hours exposure, SRB; read-out: LC50 HELA
Where a SMILES comes first, the peptide text is derived from it. Bridges are numbered along the chain shown (N, C = ends). [ ]: non-standard residue; d: D form. The star is where a group is joined. d(aIle) = CC[C@H](C)[C@@H](N)C(=O)O; d(aThr) = C[C@@H](O)[C@@H](N)C(=O)O; Hexanoyl(5-Me) = CC(C)CCCC(=O)*; Orn = NCCC[C@H](N)C(=O)O; Dha = C=C(N)C(=O)O
Assay readout: CC50 (µM)
Reply with just the number (in µM).

Query: Look up CC50 for this compound: CC[C@H](C)[C@@H](NC(=O)[C@H](CCCN)NC(=O)[C@H]1CCCN1C(=O)[C@H](NC(=O)[C@@H](NC(=O)[C@@H](NC(=O)[C@H](NC(=O)CCCC(C)C)C(C)C)[C@@H](C)O)C(C)C)C(C)C)C(=O)N[C@H]1C(=O)N[C@H]([C@@H](C)CC)C(=O)N[C@H](C(C)C)C(=O)N[C@@H](Cc2ccccc2)C(=O)NCC(=O)N[C@@H](C(C)C)C(=O)O[C@@H]1C [Compound 65, [Gly^2]-KF] ({Hexanoyl(5-Me)}-[dV]TV[dV][dP][Orn][d(aIle)][d(aThr)][d(aIle)][dV]FGV; ester 8-C)
Result: 3.26

Query: Look up CC50 for this compound: C=C1NC(=O)[C@H](Cc2ccccc2)NC(=O)[C@@H](C(C)C)NC(=O)[C@@H]([C@@H](C)CC)NC(=O)[C@H](NC(=O)[C@H](NC(=O)[C@H](CCCN)NC(=O)[C@H]2CCCN2C(=O)[C@H](NC(=O)[C@@H](NC(=O)[C@@H](NC(=O)[C@H](NC(=O)CCCC(C)C)C(C)C)[C@@H](C)O)C(C)C)C(C)C)[C@@H](C)CC)[C@@H](C)OC(=O)[C@H](C(C)C)NC1=O [Compound 67, [Dha^2]-KF] ({Hexanoyl(5-Me)}-[dV]TV[dV][dP][Orn][d(aIle)][d(aThr)][d(aIle)][dV]F[Dha]V; ester 8-C)
Result: 4

Query: Look up CC50 for this compound: C/C=C1\NC(=O)[C@H](Cc2ccccc2)NC(=O)[C@@H](C(C)C)NC(=O)[C@@H]([C@@H](C)CC)NC(=O)[C@H](NC(=O)[C@H](NC(=O)[C@H](CCCNC(=O)C(F)(F)F)NC(=O)[C@H]2CCCN2C(=O)[C@H](NC(=O)[C@@H](NC(=O)[C@@H](NC(=O)[C@H](NC(=O)CC[C@@H](C)CC)C(C)C)[C@@H](C)O)C(C)C)C(C)C)[C@@H](C)CC)[C@@H](C)OC(=O)[C@H](C(C)C)NC1=O
Result: 2.59

---

Give measured LC50 (concentration causing 50% net cell kill) for each item. Keep answers brief.
# Test system: DU-145
# Assay: SRB colorimetric assay of cell growth and viability, DU-145
# Format: cell-based, human
# Stated conditions: 48 hours exposure
Where a SMILES comes first, the peptide text is derived from it. Bridges are numbered along the chain shown (N, C = ends). [ ]: non-standard residue; d: D form. The star is where a group is joined. d(aIle) = CC[C@H](C)[C@@H](N)C(=O)O; d(aThr) = C[C@@H](O)[C@@H](N)C(=O)O; Hexanoyl(5-Me) = CC(C)CCCC(=O)*; Myristoyl = CCCCCCCCCCCCCC(=O)*; Orn = NCCC[C@H](N)C(=O)O; Dhb = C/C=C(\N)C(=O)O
Reply with just the number (in µM).

Query: Look up LC50 (concentration causing 50% net cell kill) for this compound: C/C=C1\NC(=O)[C@H](Cc2ccccc2)NC(=O)[C@@H](C(C)C)NC(=O)[C@@H]([C@@H](C)CC)NC(=O)[C@H](NC(=O)[C@H](NC(=O)[C@H](CCCN)NC(=O)[C@H]2CCCN2C(=O)[C@H](NC(=O)CNC(=O)[C@@H](NC(=O)[C@H](NC(=O)CCCC(C)C)C(C)C)[C@@H](C)O)C(C)C)[C@@H](C)CC)[C@@H](C)OC(=O)[C@H](C(C)C)NC1=O [Compound 42, [Gly^11]-KF] ({Hexanoyl(5-Me)}-[dV]TG[dV][dP][Orn][d(aIle)][d(aThr)][d(aIle)][dV]F[Dhb]V; ester 8-C)
Result: 6.96

Query: Look up LC50 (concentration causing 50% net cell kill) for this compound: C/C=C1\NC(=O)[C@H](Cc2ccccc2)NC(=O)[C@@H](C(C)C)NC(=O)[C@@H]([C@@H](C)CC)NC(=O)[C@H](NC(=O)[C@H](NC(=O)[C@H](CCCN)NC(=O)[C@H]2CCCN2C(=O)[C@H](NC(=O)[C@@H](NC(=O)[C@@H](NC(=O)[C@H](NC(=O)CCCC(C)C)[C@H](C)O)[C@@H](C)O)C(C)C)C(C)C)[C@@H](C)CC)[C@@H](C)OC(=O)[C@H](C(C)C)NC1=O [Compound 41, [D-Thr^13]-KF]
Result: 3.73

Query: Look up LC50 (concentration causing 50% net cell kill) for this compound: C/C=C1\NC(=O)[C@H](Cc2ccccc2)NC(=O)[C@@H](C(C)C)NC(=O)[C@@H]([C@@H](C)CC)NC(=O)[C@H](NC(=O)[C@H](NC(=O)[C@H](CCCN)NC(=O)[C@H]2CCCN2C(=O)[C@H](NC(=O)CCCCCCCCCCCCC)C(C)C)[C@@H](C)CC)[C@@H](C)OC(=O)[C@H](C(C)C)NC1=O [Compound 32] (Myristoyl-[dV][dP][Orn][d(aIle)][d(aThr)][d(aIle)][dV]F[Dhb]V; ester 5-C)
Result: 6.81

Query: Look up LC50 (concentration causing 50% net cell kill) for this compound: C/C=C1\NC(=O)[C@H](Cc2ccccc2)NC(=O)[C@@H](C(C)C)NC(=O)[C@@H]([C@@H](C)CC)NC(=O)[C@H](NC(=O)[C@H](NC(=O)[C@H](CCCN)NC(=O)[C@H]2CCCN2C(=O)[C@H](NC(=O)[C@@H](NC(=O)[C@@H](NC(=O)CNC(=O)CCCC(C)C)[C@@H](C)O)C(C)C)C(C)C)[C@@H](C)CC)[C@@H](C)OC(=O)[C@H](C(C)C)NC1=O [Compound 33, [Gly^13]-KF]
Result: 6.96

Query: Look up LC50 (concentration causing 50% net cell kill) for this compound: C/C=C1\NC(=O)[C@H](Cc2ccccc2)NC(=O)[C@@H](C(C)C)NC(=O)[C@@H]([C@@H](C)CC)NC(=O)[C@H](NC(=O)[C@H](NC(=O)[C@H](CCCN)NC(=O)[C@H]2CCCN2C(=O)[C@H](NC(=O)[C@@H](NC(=O)[C@@H](NC(=O)[C@H](NC(=O)CCCC(C)C)C(C)C)[C@@H](C)O)C(C)C)C(C)C)[C@@H](C)CC)COC(=O)[C@H](C(C)C)NC1=O [Compound 3, [D-Ser^6]-KF] ({Hexanoyl(5-Me)}-[dV]TV[dV][dP][Orn][d(aIle)][dS][d(aIle)][dV]F[Dhb]V; ester 8-C)
Result: 3.44
